Molecular target: integrins on WM-115 cells (mainly integrin α5β1, αVβ3, and αVβ5)
Test: competitive cell adhesion assay
Reported property: IC50

Example entries and their recorded answers appear below.
FEANE (HELM PEPTIDE1{F.E.[dA].N.E}$PEPTIDE1,PEPTIDE1,1:R1-5:R2$$$V2.0; SMILES C[C@H]1NC(=O)[C@H](CCC(=O)O)NC(=O)[C@H](Cc2ccccc2)NC(=O)[C@H](CCC(=O)O)NC(=O)[C@H](CC(N)=O)NC1=O) [cyclopeptide-3 c-(-FEaNE-)] | > 1000 µM
FEANE (HELM PEPTIDE1{F.E.A.[dN].E}$PEPTIDE1,PEPTIDE1,1:R1-5:R2$$$V2.0; SMILES C[C@@H]1NC(=O)[C@H](CCC(=O)O)NC(=O)[C@H](Cc2ccccc2)NC(=O)[C@H](CCC(=O)O)NC(=O)[C@@H](CC(N)=O)NC1=O) [cyclopeptide-4 c-(-FEAnE-)] | > 1000 µM

Attention now shifts to the item below.
*Q* Recorded IC50 of FEANE (HELM PEPTIDE1{[dF].E.A.N.E}$PEPTIDE1,PEPTIDE1,1:R1-5:R2$$$V2.0; SMILES C[C@@H]1NC(=O)[C@H](CCC(=O)O)NC(=O)[C@@H](Cc2ccccc2)NC(=O)[C@H](CCC(=O)O)NC(=O)[C@H](CC(N)=O)NC1=O) [cyclopeptide-1 c-(-fEANE-)] , please.
*A* > 1000 µM
